Recorded values, source ChEMBL document CHEMBL1201862.

tested on: NCI/ADR-RES; experiment: NCI tumour cell line growth inhibition, 48 h
The source made the active and inactive calls. No stated cut-off is given here; in the data, active = GI50 up to about 1.1 µM and inactive = higher.
measuredParameter: GI50

Please review the following examples before continuing.
                               samplesmiles  measuredparameter               result
0           CCn1cc(C(=O)O)c(=O)c2ccc(C)nc21               GI50  > 100 µM (inactive)
1  COc1c(-c2ccc3c(c2)OCO3)oc2cc(O)cc(O)c2c1=O               GI50     46 µM (inactive)

Turning now to a further record.
Lab request: please report GI50 under test system NCI/ADR-RES for Cc1ccc(O)c(-c2cc(-c3cccc(Cl)c3)c(C#N)c(N)n2)c1
24.7 µM (inactive)
